Readings of Km for the listed molecules
# PROTOCOL_NOTES: enzyme kinetic measurements with purified protein
# Format: biochemical
# EXPERIMENTAL_CONDITIONS: 0-1280 uM substrate, read-out: Km Fenoxaprop
TEST_READOUT: Km (µM)

>>> result("MON-HT55: engineered oxygenase protein, amino acid sequence SEQ ID NO:11 (protein) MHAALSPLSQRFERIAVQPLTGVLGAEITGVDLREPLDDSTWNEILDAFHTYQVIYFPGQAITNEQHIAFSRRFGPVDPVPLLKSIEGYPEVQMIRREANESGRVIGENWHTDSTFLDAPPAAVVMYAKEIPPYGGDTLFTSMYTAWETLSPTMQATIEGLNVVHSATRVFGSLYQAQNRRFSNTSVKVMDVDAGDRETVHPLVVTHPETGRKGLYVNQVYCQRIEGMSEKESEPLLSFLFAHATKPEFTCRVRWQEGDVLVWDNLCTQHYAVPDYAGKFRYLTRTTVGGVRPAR")
200
>>> result("MON-HT52: engineered oxygenase protein, amino acid sequence SEQ ID NO:4 (protein) MHAALSPLSQRFERIAVQPLTGVLGAEITGVDLREPLDDSTWNEILDAFHTYQVIYFPGQAITNEQQIAFSRRFGPVDPVPLLKSIEGYPEVQMIRREANESGRVIGDDWHTDSTFLDAPPAAVVMRAIDVPEHGGDTGFLSMYTAYDALSDGLKKLISGLNVVHSATRVFGSLYQAQNRRFSNTSVKVMDVDAGDRETVHPLVVTHPGSGRKGLYVNQVYCQRIEGMSEKESEPLLSFLFAHATKPEFTCRVRWKKDQVLVWDNLCTMHYAINDYHGQTRILHRTTVGGVRPAR")
490
>>> result("MON-HT51: engineered oxygenase protein, amino acid sequence SEQ ID NO:1 (protein) MHAALSPLSQRFERIAVQPLTGVLGAEITGVDLREPLSDSTWNEILDAFHTYQVIYFPGQAITNEQHIAFSRRFGPVDPVPLLKSIEGYPEVQMIRREANESGRVIGDDWHTDSSFLDAPPAAVVMRAIDVPEHGGDTGFLSMYTAYDALSDGLKKLISGLNVVHSATRVFGSLYQAQNRRFSNTSVKVMDVADGDRETVHPLVVTHPGSGRKGLYVNQVYCQRIEGMSEKESEPLLSFLFAHATKPEFTCRVRWKKDQVLVWDNLCTMHYAINDYHGQTRILHRTTVGGVRPAR")
870

Entry source: patent US12723255B2
